Target: T1, EsCas13d, nuclease-dead (Eubacterium siraeum, UniProt B0MS50, R295A;H300A;R849A;H854A)
T1 sequence: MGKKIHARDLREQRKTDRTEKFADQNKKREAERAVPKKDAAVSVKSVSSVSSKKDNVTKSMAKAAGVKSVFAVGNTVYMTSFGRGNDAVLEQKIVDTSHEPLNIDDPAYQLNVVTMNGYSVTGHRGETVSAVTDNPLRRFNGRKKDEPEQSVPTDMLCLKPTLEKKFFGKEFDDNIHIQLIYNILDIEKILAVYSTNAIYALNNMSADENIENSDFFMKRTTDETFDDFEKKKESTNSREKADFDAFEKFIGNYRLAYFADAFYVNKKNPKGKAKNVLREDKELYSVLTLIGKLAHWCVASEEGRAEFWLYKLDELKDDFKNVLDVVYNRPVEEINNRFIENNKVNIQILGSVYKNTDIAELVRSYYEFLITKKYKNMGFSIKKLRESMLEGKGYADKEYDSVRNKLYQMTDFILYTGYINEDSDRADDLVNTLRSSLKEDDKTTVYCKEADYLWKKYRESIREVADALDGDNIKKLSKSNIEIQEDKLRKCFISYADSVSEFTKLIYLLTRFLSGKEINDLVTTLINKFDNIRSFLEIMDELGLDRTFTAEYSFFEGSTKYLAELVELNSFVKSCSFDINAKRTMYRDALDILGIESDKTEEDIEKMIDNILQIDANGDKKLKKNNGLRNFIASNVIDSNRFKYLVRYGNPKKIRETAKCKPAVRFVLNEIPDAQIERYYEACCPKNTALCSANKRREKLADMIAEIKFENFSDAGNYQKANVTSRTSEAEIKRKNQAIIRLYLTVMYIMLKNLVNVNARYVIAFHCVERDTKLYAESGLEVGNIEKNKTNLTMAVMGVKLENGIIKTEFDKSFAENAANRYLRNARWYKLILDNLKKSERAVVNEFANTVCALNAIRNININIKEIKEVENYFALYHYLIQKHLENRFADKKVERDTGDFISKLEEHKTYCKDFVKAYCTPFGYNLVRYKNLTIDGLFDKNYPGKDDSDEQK
Assay: crRNA (strand 1, pre-loaded); Mg2+; 40 mM Tris-HCl pH 7.5, 150 mM NaCl, 6 mM MgCl2, 1 mM DTT, 0.1% Tween-20, 0.2 mg/ml BSA; 25 C; 10 min per concentration, then washed
Details: tags: His6-TwinStrep-SUMO cleaved; N-terminal SNAP kept (SNAP-Surface 488); label: 3' end held by stalled T7 RNA polymerase
Property Label: Kd

>>> obs_value("target 1 insA 3' of 12,insA 3' of 10 (mixed) RNA 1: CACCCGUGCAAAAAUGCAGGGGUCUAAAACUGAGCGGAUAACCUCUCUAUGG RNA 2: GGGAAUGGAUCCACAUCUACGAAUUCGUACCAUAGAGAGGAUUAAUCCGCUCACCGAGAUCGGAAGAGCACACGU")
"32 nM"
>>> obs_value("target 1 insG 3' of 14,insC 3' of 10 (mixed) RNA 1: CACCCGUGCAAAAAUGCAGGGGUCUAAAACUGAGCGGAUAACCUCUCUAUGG RNA 2: GGGAAUGGAUCCACAUCUACGAAUUCGUACCAUAGAGAGGGUUCAUCCGCUCACCGAGAUCGGAAGAGCACACGU")
"47 nM"

Sourced from paper PMC10786891
